assay: small molecules captured by biotinylated probe aFSTL3 – biochemical, small-molecule microarray, fluorescence 635/667, stem cell growth factor project, primary screen (AID 1064); conditions: higher = more signal;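 further: measures binding of the biotinylated anti-FSTL3 antibody to printed compounds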
The threshold is inclusive: composite z-score of exactly -0.09 counts as T; values below receive F.

Worked cases, answers included:
* COCCOC(=O)N1C(=O)[C@@]2(c3cc(C#CCNC(N)=O)ccc31)[C@H](C(=O)Nc1nc3ccccc3s1)[C@H]1C(=O)O[C@H](c3ccccc3)[C@H](c3ccccc3)N1[C@@H]2c1ccccc1OCCO | F
* COc1ccc(C(O)C2C=CC3C(=O)N(c4ccccc4)C(=O)C3N2Nc2ccc(C#N)cc2)cc1OCc1ccccc1 (stereo unspecified) | T
* C=CCN1C(=O)[C@]2(O[C@H](CCn3cc([C@H](O)c4ccccc4)nn3)[C@@H]([Si](C)(C)c3ccc(OC)cc3)[C@@H]2C)c2cc(NC(=O)c3ccc(OC)cc3)ccc21 | F
* C=CCNC(=O)[C@H]1[C@@H]2C(=O)O[C@@H](c3ccccc3)[C@@H](c3ccccc3)N2[C@@H](c2ccc(OCCO)cc2)[C@]12C(=O)Nc1ccccc12 | T

As a next step, examine the compound that follows.
Reported composite z-score at or above -0.09? "[N-]=[N+]=Nc1ccccc1[C@@H]1OC(c2ccc(OCCCO)cc2)=N[C@]1(Cc1ccccc1)C(=O)NCCN1CCOCC1"
T

src = PubChem BioAssay
